Target: human cathepsin F (Homo sapiens)
Sequence (Q9UBX1 271-484): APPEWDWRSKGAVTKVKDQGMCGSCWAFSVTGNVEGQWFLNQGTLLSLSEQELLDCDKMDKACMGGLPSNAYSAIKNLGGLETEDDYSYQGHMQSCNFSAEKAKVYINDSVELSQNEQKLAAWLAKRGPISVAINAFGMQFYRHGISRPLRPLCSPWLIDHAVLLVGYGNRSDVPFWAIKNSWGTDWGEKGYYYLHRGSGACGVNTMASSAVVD
MEASURED_PARAMETER: IC50 (nM)

1. N#CC1(NC(=O)[C@@H]2CC3CC3C[C@H]2c2oc(-c3ccc(F)cn3)nc2-c2ccc(N3CCS(=O)(=O)CC3)cc2)CC1 (single isomer, unassigned) = 1620
2. COc1ccccc1-c1nc(-c2ccc(N3CCS(=O)(=O)CC3)cc2)c([C@@H]2CCCC[C@H]2C(=O)NC2(C#N)CC2)o1 = 750
3. CC1(c2nc(-c3ccc(N4CCS(=O)(=O)CC4)cc3)c([C@@H]3CCCC[C@H]3C(=O)NC3(C#N)CC3)o2)CC[Si](C)(C)CC1 = 582
4. CS(=O)(=O)N1CCN(C(=O)c2ccc(-c3nc(-c4ccc(F)cc4F)oc3[C@@H]3CCCC[C@H]3C(=O)NC3(C#N)CC3)cc2)CC1 = 3930

I. CC1CC1(C#N)NC(=O)[C@@H]1CCCC[C@H]1c1oc(-c2ccc(F)cc2)nc1-c1ccc(N2CCS(=O)(=O)CC2)cc1 (single isomer, unassigned)
II. CC(C)(C)OC(=O)Nc1ccc(-c2nc(-c3ccc(F)cc3)oc2[C@@H]2CCCC[C@H]2C(=O)NC2(C#N)CC2)cc1
Qu. Higher IC50: I or II ? The response must carry the label of the picked entry.
Ans. I
